# Test system: primary cortico-hippocampal neuron cultures
# experiment_description: lactate dehydrogenase (LDH) activity assay in parallel neuron cultures
# measurement_parameters: primary screening; table sorted by Aβ1-42
Structures can show the parent of a compound that is named as a salt.
LDH (% of ctl) values for the compounds below.
endpoint_label: LDH (% of ctl)

compound: CCOc1ccccc1OCCN[C@H](C)Cc1ccc(OC)c(S(N)(=O)=O)c1.Cl [Tamsulosin Hydrchloride]
data_value: 102.2 % of ctl
//
compound: CC(C)OC(=O)C(C)(C)Oc1ccc(C(=O)c2ccc(Cl)cc2)cc1 [Fenofibrate]
data_value: 140.0 % of ctl
//
compound: CCOC(=O)C(C)(C)Oc1ccc(Cl)cc1 [Clofibrate]
data_value: 110.5 % of ctl
//
compound: CC[C@]12CCCN3CCc4c(n(c5ccccc45)[C@@](O)(C(=O)OC)C1)[C@@H]32
data_value: 96.4 % of ctl
//
compound: Cc1ccc(N(CC2=NCCN2)c2cccc(O)c2)cc1 [Phentolamine Hydrochloride]
data_value: 90.7 % of ctl
//
compound: NS(=O)(=O)c1cc2c(cc1Cl)N=CNS2(=O)=O [Chlorothiazide]
data_value: 110.3 % of ctl
//
compound: COc1cc2nc(N(C)CCCNC(=O)C3CCCO3)nc(N)c2cc1OC (stereo not drawn)
data_value: 95.4 % of ctl
//
compound: CC1Cc2ccccc2N1NC(=O)c1ccc(Cl)c(S(N)(=O)=O)c1 (stereo not drawn) [Indapamide]
data_value: 85.3 % of ctl
//
compound: CC(CCc1ccccc1)NC(C)C(O)c1ccc(O)cc1 (stereo not drawn) [Nylidrin Hydrochloride]
data_value: 115.6 % of ctl

---

# Tested on: primary cortico-hippocampal neuron cultures
# experiment_description: MTT in primary screening
# measurement_parameters: Primary Screening; table sorted by Aβ1-40
Where a name gives a salt, the structure may show the parent alone.
# maps each entry to its MTT (% of ctl)
endpoint_label: MTT (% of ctl)

compound: O=c1cc(-c2ccccc2)oc2cc(O)cc(O)c12 [Chrysin]
endpoint_label: MTT (% of ctl)
data_value: 84.5 % of ctl

compound: CC(C)c1c(C(=O)Nc2ccccc2)c(-c2ccccc2)c(-c2ccc(F)cc2)n1CC[C@@H](O)C[C@@H](O)CC(=O)[O-].CC(C)c1c(C(=O)Nc2ccccc2)c(-c2ccccc2)c(-c2ccc(F)cc2)n1CC[C@@H](O)C[C@@H](O)CC(=O)[O-].[Ca+2] [Atorvastatin Calcium]
endpoint_label: MTT (% of ctl)
data_value: 98.4 % of ctl

compound: CN1C[C@H](CNC(=O)OCc2ccccc2)C[C@@H]2c3cccc4c3c(cn4C)C[C@H]21 [Metergoline]
endpoint_label: MTT (% of ctl)
data_value: 76.5 % of ctl

compound: NCCCCCC(=O)O [Aminocaproic Acid]
endpoint_label: MTT (% of ctl)
data_value: 80.3 % of ctl

compound: COc1ccc2cc1Oc1ccc(cc1)C[C@H]1c3cc(c(OC)cc3CCN1C)Oc1c(OC)c(OC)cc3c1[C@H](C2)N(C)CC3 [Tetrandrine]
endpoint_label: MTT (% of ctl)
data_value: 112.5 % of ctl

compound: CC(NCCC(c1ccccc1)c1ccccc1)c1ccccc1 (stereo not drawn) [Fendiline Hydrochloride]
endpoint_label: MTT (% of ctl)
data_value: 7.7 % of ctl

compound: CCOC(=O)[C@H](CCc1ccccc1)N[C@@H](C)C(=O)N1Cc2ccccc2C[C@H]1C(=O)O [Quinapril Hydrochloride]
endpoint_label: MTT (% of ctl)
data_value: 102.4 % of ctl

compound: COc1cc2ccc(=O)oc2cc1O [Scopoletin]
endpoint_label: MTT (% of ctl)
data_value: 99.7 % of ctl

compound: COc1ccc(C2C(=O)c3ccccc3C2=O)cc1 [Anisindione]
endpoint_label: MTT (% of ctl)
data_value: 110.7 % of ctl

compound: CCC(=O)O[C@@H](O[P@](=O)(CCCCc1ccccc1)CC(=O)N1C[C@H](C2CCCCC2)C[C@H]1C(=O)O)C(C)C [Fosinopril Sodium]
endpoint_label: MTT (% of ctl)
data_value: 101.4 % of ctl

compound: NS(=O)(=O)c1cc2c(cc1Cl)N=CNS2(=O)=O [Chlorothiazide]
endpoint_label: MTT (% of ctl)
data_value: 99.4 % of ctl

compound: C[C@@H]1CCC[C@H](C)N1NC(=O)c1ccc(Cl)c(S(N)(=O)=O)c1 [Clopamide]
endpoint_label: MTT (% of ctl)
data_value: 99.2 % of ctl

compound: Cc1ccccc1N1C(=O)c2cc(S(N)(=O)=O)c(Cl)cc2NC1C (stereo not drawn) [Metolazone]
endpoint_label: MTT (% of ctl)
data_value: 69.7 % of ctl

compound: NS(=O)(=O)c1cc2c(cc1Cl)NC(C1CC3C=CC1C3)NS2(=O)=O (stereo not drawn) [Cyclothiazide]
endpoint_label: MTT (% of ctl)
data_value: 97.7 % of ctl

compound: Fc1ccc(C(c2ccc(F)cc2)N2CCN(C/C=C/c3ccccc3)CC2)cc1 [Flunarizine Hydrochloride]
endpoint_label: MTT (% of ctl)
data_value: 59.4 % of ctl

compound: COc1ccc(OC)c(C(O)CNC(=O)CN)c1 (stereo not drawn) [Midodrine Hydrochloride]
endpoint_label: MTT (% of ctl)
data_value: 87.8 % of ctl

compound: C=CCSCC1Nc2cc(Cl)c(S(N)(=O)=O)cc2S(=O)(=O)N1 (stereo not drawn) [Althiazide]
endpoint_label: MTT (% of ctl)
data_value: 99.7 % of ctl

compound: CCCNCC(O)COc1ccccc1C(=O)CCc1ccccc1 (stereo not drawn) [Propafenone Hydrochloride]
endpoint_label: MTT (% of ctl)
data_value: 95.2 % of ctl

compound: CC(C)c1nc(N(C)S(C)(=O)=O)nc(-c2ccc(F)cc2)c1/C=C/[C@@H](O)C[C@@H](O)CC(=O)O [Rosuvastatin]
endpoint_label: MTT (% of ctl)
data_value: 103.8 % of ctl

compound: CC(C)NCC(O)COc1cccc2[nH]ccc12 (stereo not drawn) [Pindolol]
endpoint_label: MTT (% of ctl)
data_value: 98.9 % of ctl

compound: NS(=O)(=O)c1cc2c(cc1Cl)NCNS2(=O)=O [Hydrochlorothiazide]
endpoint_label: MTT (% of ctl)
data_value: 102.1 % of ctl

compound: C[C@]12CCC(=O)C=C1C=C[C@@H]1[C@@H]2CC[C@@]2(C)[C@H]1CC[C@@]2(O)CCC(=O)O [Canrenoic Acid, Potassium Salt]
endpoint_label: MTT (% of ctl)
data_value: 102.1 % of ctl

compound: CCCCCCCCNC(C)C(O)c1ccc(SC(C)C)cc1 (stereo not drawn) [Suloctidil]
endpoint_label: MTT (% of ctl)
data_value: 77.7 % of ctl

compound: COCCc1ccc(OCC(O)CNC(C)C)cc1 (stereo not drawn) [Metoprolol Tartrate]
endpoint_label: MTT (% of ctl)
data_value: 94.7 % of ctl

compound: Cc1cccc(C)c1OCC(C)N (stereo not drawn) [Mexiletine Hydrochloride]
endpoint_label: MTT (% of ctl)
data_value: 95.6 % of ctl

compound: CCOC(=O)[N-]c1cn(N2CCOCC2)n[o+]1 [Molsidomine]
endpoint_label: MTT (% of ctl)
data_value: 15.0 % of ctl

compound: NS(=O)(=O)c1cc(C2(O)NC(=O)c3ccccc32)ccc1Cl (stereo not drawn) [Chlorthalidone]
endpoint_label: MTT (% of ctl)
data_value: 12.1 % of ctl

compound: CC[C@H]1[C@@H]2C[C@H]3[C@@H]4N(C)c5ccccc5[C@]45C[C@@H]([C@H]2[C@H]5O)N3[C@@H]1O [Ajmaline]
endpoint_label: MTT (% of ctl)
data_value: 90.3 % of ctl

compound: CC(N)CCCC(C)(C)O (stereo not drawn) [Heptaminol Hydrochloride]
endpoint_label: MTT (% of ctl)
data_value: 103.4 % of ctl

compound: CC(=O)S[C@@H]1CC2=CC(=O)CC[C@]2(C)[C@H]2CC[C@@]3(C)[C@@H](CC[C@@]34CCC(=O)O4)[C@H]12 [Spironolactone]
endpoint_label: MTT (% of ctl)
data_value: 117.0 % of ctl

compound: CCOC(=O)[C@H](CCc1ccccc1)N[C@@H](C)C(=O)N1CCC[C@H]1C(=O)O [Enalapril Maleate]
endpoint_label: MTT (% of ctl)
data_value: 126.4 % of ctl

compound: COC(=O)C1=C(C)NC(C)=C(C(=O)OC)C1c1ccccc1[N+](=O)[O-] [Nifedipine]
endpoint_label: MTT (% of ctl)
data_value: 98.7 % of ctl

compound: CC(CCc1ccc(O)cc1)NCCc1ccc(O)c(O)c1 (stereo not drawn) [Dobutamine Hydrochloride]
endpoint_label: MTT (% of ctl)
data_value: 99.5 % of ctl

---

# System: Aβ1-42
# experiment_description: Aβ1-42 content in conditioned medium of primary cortico-hippocampal neuron cultures from Tg2576 mice (ELISA; primary and secondary dose-response screening)
# Assay type: cell-based, mouse
# measurement_parameters: Mus musculus, Neuron, 24 h, primary screening, drug 100 μM, Tg2576 neuron cultures; table sorted by Aβ1-42; read-out: Ab1-42 (% of ctl)
Structures can show the parent of a compound that is named as a salt.
Parameter activity at 100 µM: see the listing below.
endpoint_label: activity at 100 µM (%)

molecule: CC(=O)S[C@@H]1CC2=CC(=O)CC[C@]2(C)[C@H]2CC[C@@]3(C)[C@@H](CC[C@@]34CCC(=O)O4)[C@H]12 [Spironolactone]
data_value: 70.7
--
molecule: CC1Cc2ccccc2N1NC(=O)c1ccc(Cl)c(S(N)(=O)=O)c1 (centres unmarked) [Indapamide]
data_value: 91.3
--
molecule: NS(=O)(=O)c1cc(C2(O)NC(=O)c3ccccc32)ccc1Cl (centres unmarked) [Chlorthalidone]
data_value: 96.7
--
molecule: NS(=O)(=O)c1cc2c(cc1Cl)NC(C1CC3C=CC1C3)NS2(=O)=O (centres unmarked) [Cyclothiazide]
data_value: 75
--
molecule: COC(=O)C1=C(C)NC(C)=C(C(=O)OCCN(C)Cc2ccccc2)C1c1cccc([N+](=O)[O-])c1 (centres unmarked) [Nicardipine Hydrochloride]
data_value: 27.6
--
molecule: NS(=O)(=O)c1cc2c(cc1Cl)N=CNS2(=O)=O [Chlorothiazide]
data_value: 104
--
molecule: CC(C)OC(=O)C(C)(C)Oc1ccc(C(=O)c2ccc(Cl)cc2)cc1 [Fenofibrate]
data_value: 77.7
--
molecule: CO[C@]12C[C@@H](COC(=O)c3cncc(Br)c3)CN(C)[C@@H]1Cc1cn(C)c3cccc2c13 [Nicergoline]
data_value: 98.5
--
molecule: CCCCNc1cc(C(=O)O)cc(S(N)(=O)=O)c1Oc1ccccc1 [Bumetanide]
data_value: 74.7
--
molecule: COc1ccccc1OCCNCC(O)COc1cccc2[nH]c3ccccc3c12 (centres unmarked) [Carvedilol]
data_value: 30.8
--
molecule: COCCc1ccc(OCC(O)CNC(C)C)cc1 (centres unmarked) [Metoprolol Tartrate]
data_value: 104
--
molecule: COc1ccccc1N1CCN(CCCNc2cc(=O)n(C)c(=O)n2C)CC1 [Urapidil]
data_value: 114
--
molecule: CC(C)NCC(O)COc1ccc(CC(N)=O)cc1 (centres unmarked) [Atenolol]
data_value: 94.5
--
molecule: C=CCc1ccccc1OCC(O)CNC(C)C (centres unmarked) [Alprenolol]
data_value: 106
--
molecule: COc1cc2nc(N3CCN(C(=O)c4ccco4)CC3)nc(N)c2cc1OC [Prazosin Hydrochloride]
data_value: 23.2
--
molecule: CN1C(C)(C)CCCC1(C)C [Pempidine Tartrate]
data_value: 78.6
--
molecule: CNC1(C)C2CCC(C2)C1(C)C (centres unmarked) [Mecamylamine Hydrochloride]
data_value: 130
--
molecule: Cc1ccc(N(CC2=NCCN2)c2cccc(O)c2)cc1 [Phentolamine Hydrochloride]
data_value: 72.9
--
molecule: CCC(C(N)=O)c1ccccc1 (centres unmarked) [Fenbutyramide]
data_value: 96.3
--
molecule: C[N+]1(CCCCC[N+]2(C)CCCC2)CCCC1 [Pentolinium Tartrate]
data_value: 134
